Could you please report measured Ki for the items listed next?
target: T1, Human EphA2 (Ecto) (Human, UniProt P29317 24-537); assay: FP competition, tracer Compound 18
T1 construct: extracellular domain
T1 sequence (P29317 24-537): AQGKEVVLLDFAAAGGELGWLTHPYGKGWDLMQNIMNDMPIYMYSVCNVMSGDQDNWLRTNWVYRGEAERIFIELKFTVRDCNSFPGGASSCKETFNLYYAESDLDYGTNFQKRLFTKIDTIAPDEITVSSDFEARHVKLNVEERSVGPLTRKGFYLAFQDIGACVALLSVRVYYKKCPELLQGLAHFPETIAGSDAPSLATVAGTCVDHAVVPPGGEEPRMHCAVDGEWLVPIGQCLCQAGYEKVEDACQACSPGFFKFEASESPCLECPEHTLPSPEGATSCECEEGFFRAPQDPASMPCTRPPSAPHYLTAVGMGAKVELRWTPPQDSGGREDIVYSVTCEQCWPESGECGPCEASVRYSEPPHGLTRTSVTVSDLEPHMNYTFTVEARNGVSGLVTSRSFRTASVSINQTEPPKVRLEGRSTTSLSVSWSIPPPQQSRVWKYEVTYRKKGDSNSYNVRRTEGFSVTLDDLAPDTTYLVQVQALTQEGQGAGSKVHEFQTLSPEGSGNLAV
Starred links: 1 amine or outer side, 2 acyl side, 3 side chain; linkers in the order of their positions; H or OH if unused. Positions of bridges follow the written chain, without caps; N, C: chain ends. Non-standard residues stand in square brackets, D forms with d. Primed or numbered codes have the meaning given here. No end group written: not given here. TBMB′ = 1,3,5-tris(bromomethyl)benzene, 1,3,5-tris(methylene)benzene core, three thioethers to Cys; ThiAz = 3-(1,2,4-triazol-1-yl)-alanine, O=C([C@H](Cn1cncn1)N[*:1])[*:2]; 1Nal = N[C@@H](Cc1cccc2ccccc12)C(=O)O; TBMB = c1c(C[*:1])cc(C[*:3])cc1C[*:2]; Tle = CC(C)(C)[C@H](N)C(=O)O; Aib = CC(C)(N)C(=O)O; Sar = CNCC(=O)O
Answers are plain numbers, in nM.

ADVHCPWG[Aib]FWCPVNRPGCA (linker 5-12-19 via TBMB′) [Bicycle Compound 153] = 0.51
Ac-[Sar][Sar]H[dD]VPCP[1Nal]G[Aib]F[1Nal]CPVNR[Aib]GC (linker 7-14-21 via TBMB) [Bicycle Compound 261] = 0.63
[Sar][Sar]AHAVPCPWGPFWCPVNRPGC (linker 8-15-22 via TBMB) [Bicycle Compound 205] = 1.8
Ac-[Sar][Sar]A[dD]VTCPWGPFWCPVNRPGC (linker 7-14-21 via TBMB′) [Bicycle Compound 158] = 2.05
Ac-[Sar][Sar]A[dD]VTCPWG[Aib]F[1Nal]CPVNR[Aib]GC (linker 7-14-21 via TBMB′) [Bicycle Compound 179] = 2.94

Report Ki for each item below.
1. Ac-[Sar][Sar]H[dD]VPCP[1Nal]G[Aib]FWCPVNR[Aib]GC (linker 7-14-21 via TBMB) [Bicycle Compound 266]
2. [Sar][Sar]A[ThiAz]DVPCPWGPFWCPVNRPGC (linker 8-15-22 via TBMB) [Bicycle Compound 202]
3. [Sar][Sar]AHD[dA]PCPWGPFWCPVNRPGC (linker 8-15-22 via TBMB) [Bicycle Compound 215]

## Output
1: 1.6; 2: 0.7; 3: 26

Parameter requested: Ki. Apply to each item below.
1. [Sar][Sar]AHEVPCPWGPFWCPVNRPGC (linker 8-15-22 via TBMB) [Bicycle Compound 207]
2. Ac-[Sar][Sar]A[dD]DVPCPWGPFWCPVNRPGC (linker 8-15-22 via TBMB) [Bicycle Compound 200]
3. [dD]VTCP[1Nal]G[Aib]F[1Nal]CP[Tle]NR[Aib]GC (linker 4-11-18 via TBMB′) [Bicycle Compound 186]

## Output
1.3
4.1
1.34

Source: patent US11814447B2
